pKi values, listed per item
# TARGET_SYSTEM: T1, human glucagon receptor (human, UniProt P47871 26-477)
# T1 construct: whole, on cells; Assayed as crude membranes of stably transfected HEK293 cells; also called hGcgR; GcgR
# T1 sequence (P47871 26-477): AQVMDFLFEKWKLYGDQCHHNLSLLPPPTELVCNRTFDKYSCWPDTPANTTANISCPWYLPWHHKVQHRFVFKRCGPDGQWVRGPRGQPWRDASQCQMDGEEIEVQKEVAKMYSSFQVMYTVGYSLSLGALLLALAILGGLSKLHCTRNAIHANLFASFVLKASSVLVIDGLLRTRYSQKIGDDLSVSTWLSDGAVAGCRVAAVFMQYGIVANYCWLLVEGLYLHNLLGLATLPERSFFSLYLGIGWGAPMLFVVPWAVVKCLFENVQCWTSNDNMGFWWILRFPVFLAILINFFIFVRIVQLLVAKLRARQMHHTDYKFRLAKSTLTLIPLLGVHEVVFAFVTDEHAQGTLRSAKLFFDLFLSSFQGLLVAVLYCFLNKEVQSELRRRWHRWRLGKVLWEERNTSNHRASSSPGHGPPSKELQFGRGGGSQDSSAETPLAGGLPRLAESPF
# ASSAY: SPA, displacement of [125I]-Gcg from hGcgR membranes, 0.1% bacitracin
A value of pKi is the negative decimal logarithm of a concentration given in moles per litre.

Worked cases, answers included:
{"BINDER": "YXEGTXISDYSIXLDKKHQXDFVEXLLEAGPSSGAPPPS (Aib2; Iva6; αMeL13; K17((2-[2-(2-Amino-ethoxy)-ethoxy]-acetyl)2-(γ-Glu)-CO-(CH2)18-CO2H); Aib20; 4-Pal25; C-terminal amide) [Example 88]", "pKi": 6.10}
{"BINDER": "YXEGTFISDYSILLDKKAQXDFVNWLLAQGPSSGAPPPS (D-Ala2; K17((2-[2-(2-Amino-ethoxy)-ethoxy]-acetyl)2-(γ-Glu)-CO-(CH2)16-CO2H); Aib20; C-terminal amide) [Example 2]", "pKi": 6.42}

We next turn to a different binder, shown below.
Asked: Fill in reported pKi for this entry: YXEGTFISDYSILLDKKAQXDFVEWLLAQGPSSGAPPPS (D-Ala2; K17((2-[2-(2-Amino-ethoxy)-ethoxy]-acetyl)2-(γ-Glu)-CO-(CH2)16-CO2H); Aib20; C-terminal amide) [Example 16]
Given back: 6.26
